Assay: chemical genetic growth profiling, strain panel (AID 1159580);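 also: tested at 20 µM; growth read once vehicle control cultures reached saturation at 30 °C; lower values mean less growth of the strain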
Details: S. cerevisiae deletion strains, growth OD, locus YIL066C, strain RNR3
In all, about 5,500 compounds went through this assay and about 2,000 (36%) were called active. About 18% were inconclusive and are not listed. Rule as the data show it: active = normalized growth mostly below about 0.91 (no sharp cut-off); inconclusive = no clear call, values can overlap the other calls; inactive = mostly above about 0.92. This is one part of the list.
Result category, one only: active, inactive

As a guide, the following entries are already answered.
>  <Compound>
CN1C(C)(C)CCCC1(C)C

>  <Group label>
inactive

$$$$
>  <Compound>
CN[C@@H]1C(O)[C@@H](O[C@@H]2[C@@H](O)[C@H](O[C@H]3OC(CN)=CC[C@H]3N)[C@@H](N)C[C@H]2N)OC[C@]1(C)O (some centres not stated)

>  <Group label>
inactive

$$$$
>  <Compound>
CCCCCc1c2c(cc(O)c1C(=O)O)OC(=O)c1c(cc(OC)cc1C(=O)CCCC)O2

>  <Group label>
inactive

$$$$
>  <Compound>
CC1(C)C(=O)C=C[C@@]2(C)C1C[C@@H](O)[C@]1(C)C2CC[C@@]2(C)[C@H](c3ccoc3)OC(=O)[C@H]3O[C@]321 (some centres not stated)

>  <Group label>
inactive

$$$$
>  <Compound>
COc1c2ccoc2cc2oc(=O)ccc12

>  <Group label>
active

$$$$

**Query** Look up the recorded call for O=C(O[C@@H]1Cc2c(O)cc(O)cc2O[C@@H]1c1cc(O)c(=O)c2c(O)c(O)cc([C@H]3Oc4cc(O)cc(O)c4C[C@H]3OC(=O)c3cc(O)c(O)c(O)c3)c2c1)c1cc(O)c(O)c(O)c1 in this test.
**Result** active

**Query** Look up the recorded call for CC1(C)C(=O)C=C[C@@]2(C)C1CC(=O)[C@]1(C)C2CC[C@@]2(C)[C@H](c3ccoc3)OC(=O)[C@H]3O[C@]321 (some centres not stated) in this test.
**Result** inactive

src = PubChem BioAssay AID1159580
